src = patent US20250313625A1

Each record here notes measured IC50.
Target: T1, mFc tagged human LAG3 ECD recombinant protein (human, UniProt P18627 23-450)
T1 construct: extracellular domain; purchased from Biointron; not shown: mouse IgG Fc (mFc) tag
T1 sequence (looked up): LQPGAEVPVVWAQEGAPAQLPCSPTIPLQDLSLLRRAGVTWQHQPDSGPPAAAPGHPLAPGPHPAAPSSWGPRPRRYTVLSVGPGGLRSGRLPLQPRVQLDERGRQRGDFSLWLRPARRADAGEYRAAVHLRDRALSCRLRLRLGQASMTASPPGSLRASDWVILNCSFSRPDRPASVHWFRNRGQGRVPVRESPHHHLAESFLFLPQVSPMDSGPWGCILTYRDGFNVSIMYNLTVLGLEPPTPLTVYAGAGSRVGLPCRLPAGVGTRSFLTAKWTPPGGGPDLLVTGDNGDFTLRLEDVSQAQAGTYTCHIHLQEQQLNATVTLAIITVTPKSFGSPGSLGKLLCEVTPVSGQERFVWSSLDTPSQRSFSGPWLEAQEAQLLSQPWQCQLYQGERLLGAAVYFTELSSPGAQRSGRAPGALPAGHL
Assay: competitive FACS: mFc-LAG3 ECD binding to Raji cells (MHC II)
The figure you give is taken to be in nM; do not add the unit.

[[record]]
binder = "hu023.13 (antibody, human IgG4, V domains shown, humanized from 023c) VH: QIQLVQSGPELKKPGASVKISCKASGYTFTESPMNWVRQAPGQGFEWMGIIYTDTGEPTYAEEFKGRFVFSLDTSVSTAYLQISSLKAEDTAVYFCVSDYGSILYWYFDVWGQGTLVTVSS VL: DIQMTQSPSSLSASVGDRVTITCKASQDVSTAVAWYQQKPGKAPKLLIYSASYRYTGVPSRFSGSGSGTDFTLTISSLQPEDFATYYCQQHYNAPPTFGQGTKLEIK"
observationtype = "IC50"
unitdescriptor = "nM"
measvalue = 5.7


Next item in the queue.
Data point: 023c (antibody, human IgG4, V domains shown, human IgG4 S228P / kappa chimeric antibody; also called chimeric antibody 023; ES005-023c; not shown: human kappa light chain constant region (pcDNA3.4-hIgGk vector)) VH: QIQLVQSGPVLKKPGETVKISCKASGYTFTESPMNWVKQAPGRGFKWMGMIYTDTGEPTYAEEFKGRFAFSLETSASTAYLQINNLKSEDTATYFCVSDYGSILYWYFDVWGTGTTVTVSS VL: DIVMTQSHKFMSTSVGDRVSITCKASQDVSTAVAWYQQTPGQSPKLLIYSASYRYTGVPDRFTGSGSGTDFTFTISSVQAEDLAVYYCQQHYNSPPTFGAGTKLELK ; IC50 = 6.2
